Test: Cytotoxicity against human MCF7 cells assessed as growth inhibition at 30 ug/ml after 48 hrs by MTT assay relative to control
Format: cell-based
Conditions: read-out: GI
Label Condition met when inhibition at 48 h, 30 ug/ml is at or above 40%; anything below gets Condition not met.

Please indicate if the recorded inhibition at 48 h, 30 ug/ml for COc1ccc2nc(Cl)c(/C=C3\CNC/C(=C\c4cc5cc(OC)ccc5nc4Cl)C3=O)cc2c1 meets or exceeds 40%.
Condition not met

Next up: COc1ccc2cc(/C=C3\CN(C)C/C(=C\c4cc5ccc(OC)cc5nc4Cl)C3=O)c(Cl)nc2c1
Condition met

Next up: COc1ccc2cc(/C=C3\CNC/C(=C\c4cc5ccc(OC)cc5nc4Cl)C3=O)c(Cl)nc2c1
Condition met

Next up: Cc1ccc2nc(Cl)c(/C=C3\CNC/C(=C\c4cc5cc(C)ccc5nc4Cl)C3=O)cc2c1
Condition not met

Next up: Cc1ccc2cc(/C=C3\CN(C)C/C(=C\c4cc5ccc(C)cc5nc4Cl)C3=O)c(Cl)nc2c1
Condition met

Next up: CN1C/C(=C\c2cc3cc(F)ccc3nc2Cl)C(=O)/C(=C/c2cc3cc(F)ccc3nc2Cl)C1
Condition not met

Next up: Cc1cccc2cc(/C=C3\CN(C)C/C(=C\c4cc5cccc(C)c5nc4Cl)C3=O)c(Cl)nc12
Condition not met

Next up: Cc1cccc2cc(/C=C3\CNC/C(=C\c4cc5cccc(C)c5nc4Cl)C3=O)c(Cl)nc12
Condition not met

Next up: CN1C/C(=C\c2cc3ccccc3nc2Cl)C(=O)/C(=C/c2cc3ccccc3nc2Cl)C1
Condition not met

Next up: O=C1/C(=C/c2cc3cc(F)ccc3nc2Cl)CNC/C1=C\c1cc2cc(F)ccc2nc1Cl
Condition met

Next up: CN1C/C(=C\c2cc3cc(Cl)ccc3nc2Cl)C(=O)/C(=C/c2cc3cc(Cl)ccc3nc2Cl)C1
Condition met

Next up: O=C1/C(=C/c2cc3cc(Cl)ccc3nc2Cl)CNC/C1=C\c1cc2cc(Cl)ccc2nc1Cl
Condition met

Next up: O=C1/C(=C/c2cc3ccccc3nc2Cl)CNC/C1=C\c1cc2ccccc2nc1Cl
Condition not met

Next up: Cc1ccc2cc(/C=C3\CNC/C(=C\c4cc5ccc(C)cc5nc4Cl)C3=O)c(Cl)nc2c1
Condition not met

Next up: Cc1ccc2nc(Cl)c(/C=C3\CN(C)C/C(=C\c4cc5cc(C)ccc5nc4Cl)C3=O)cc2c1
Condition met

* * *

Assign GI50 at 48 h to each entry below.
Experiment: Cytotoxicity against human HCT116 cells assessed as growth inhibition after 48 hrs by MTT assay
Assay type: cell-based, HCT-116
Details: HCT116 cells

Would you kindly share the measured GI50 at 48 h for CN1C/C(=C\c2cc3ccccc3nc2Cl)C(=O)/C(=C/c2cc3ccccc3nc2Cl)C1 ?
> 100 µg/mL

Next up: CN1C/C(=C\c2cc3cc(Cl)ccc3nc2Cl)C(=O)/C(=C/c2cc3cc(Cl)ccc3nc2Cl)C1
> 100 µg/mL

Next up: Cc1ccc2cc(/C=C3\CN(C)C/C(=C\c4cc5ccc(C)cc5nc4Cl)C3=O)c(Cl)nc2c1
> 100 µg/mL
